Data provenance is patent US20240016941A1.

TEST TARGET: purified LasB protein from P. aeruginosa (Pseudomonas aeruginosa)
Sequence (P14756 198-498): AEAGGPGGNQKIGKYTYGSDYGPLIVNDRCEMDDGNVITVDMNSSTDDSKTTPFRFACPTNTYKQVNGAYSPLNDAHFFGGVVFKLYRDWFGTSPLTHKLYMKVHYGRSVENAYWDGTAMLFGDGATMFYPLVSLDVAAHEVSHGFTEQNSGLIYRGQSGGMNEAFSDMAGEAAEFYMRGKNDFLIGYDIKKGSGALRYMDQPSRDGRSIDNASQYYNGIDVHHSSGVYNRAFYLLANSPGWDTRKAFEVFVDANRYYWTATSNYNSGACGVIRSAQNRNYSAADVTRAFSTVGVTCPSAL
ASSAY NAME: Fluorometric assay to determine Ki (purified LasB, Abz-Ala-Gly-Leu-Ala-p-Nitro-Benzyl-Amide substrate)
PROPERTY LABEL: Ki

Some entries whose results are on file:
[[record]]
compound = "CN(C)C1CN(C(=O)c2ccc3nc(CNC(=O)C4(CC(=O)O)Cc5ccccc5C4)sc3c2)C1 [Example 26]"
property_label = "Ki"
test_value = "200 to 10000 nM"

[[record]]
compound = "NC(=O)c1cccc2sc(CNC(=O)C3(CC(=O)O)Cc4ccccc4C3)nc12 [Example 1]"
property_label = "Ki"
test_value = "200 to 10000 nM"

[[record]]
compound = "COc1cc2sc(CNC(=O)C3(CC(=O)O)Cc4ccccc4C3)nc2cc1OCCCN(C)C [Example 52]"
property_label = "Ki"
test_value = "50 to 100 nM"


Exercise: Let me know recorded Ki for COc1cc2sc(CNC(=O)C3(CC(=O)O)Cc4cc(F)c(F)cc4C3)nc2cc1OCC1CCN(C)CC1 [Example 11] , thanks.
Key: < 50 nM

Exercise: Let me know recorded Ki for COc1cc2sc(CNC(=O)C3(CC(=O)[O-])Cc4cc(F)c(F)cc4C3)nc2cc1OCC[N+](C)(C)C [Example 56] , thanks.
Key: 50 to 100 nM

Exercise: Let me know recorded Ki for CN(C)C1CN(C(=O)c2ccc3sc(CNC(=O)C4(CC(=O)O)Cc5ccccc5C4)nc3c2)C1 [Example 32] , thanks.
Key: 50 to 200 nM

Exercise: Let me know recorded Ki for COc1cc2sc(CNC(=O)C3(CC(=O)[O-])Cc4ccccc4C3)nc2cc1OCCC[N+](C)(CCO)CCO [Example 22] , thanks.
Key: < 50 nM

Exercise: Let me know recorded Ki for COc1cc2sc(CNC(=O)C3(CC(=O)O)Cc4cc(F)c(F)cc4C3)nc2cc1OCCN1CCOCC1 [Example 10] , thanks.
Key: < 50 nM

Exercise: Let me know recorded Ki for COc1cc2sc(CNC(=O)C3(CC(=O)[O-])Cc4cc(F)c(F)cc4C3)nc2cc1C(=O)N1CC([N+](C)(C)C)C1 [Example 43] , thanks.
Key: 50 to 200 nM

Exercise: Let me know recorded Ki for COc1cc2sc(CNC(=O)C3(CC(=O)[O-])Cc4cc(F)c(F)cc4C3)nc2cc1OCC1CC[N+](C)(C)CC1 [Example 44] , thanks.
Key: < 50 nM

Exercise: Let me know recorded Ki for COc1cc2sc(CNC(=O)C3(CC(=O)[O-])Cc4ccccc4C3)nc2cc1OCCC[N+](C)(C)CCO [Example 20] , thanks.
Key: < 50 nM

Exercise: Let me know recorded Ki for COc1cc2sc(CNC(=O)C3(CC(=O)O)Cc4ccccc4C3)nc2cc1C(=O)N1CC(N(C)C)C1 [Example 36] , thanks.
Key: < 50 nM

Exercise: Let me know recorded Ki for COc1cc2sc(CNC(=O)C3(CC(=O)O)Cc4ccccc4C3)nc2cc1C(=O)N1CCOC(CN(C)C)C1 (stereo not drawn) [Example 40] , thanks.
Key: 50 to 200 nM

Exercise: Let me know recorded Ki for CN(C)CCCN1CCN(C(=O)c2ccc3sc(CNC(=O)C4(CC(=O)O)Cc5ccccc5C4)nc3c2)CC1 [Example 31] , thanks.
Key: 200 to 10000 nM

Exercise: Let me know recorded Ki for CN1CCN(CCOc2ccc3sc(CNC(=O)C4(CC(=O)O)Cc5ccccc5C4)nc3c2)CC1 [Example 25] , thanks.
Key: 200 to 10000 nM

Exercise: Let me know recorded Ki for COc1cc2sc(CNC(=O)C3(CC(=O)[O-])Cc4ccccc4C3)nc2cc1C(=O)N1CCOC(C[N+](C)(C)C)C1 (stereo not drawn) [Example 41] , thanks.
Key: 50 to 200 nM

Exercise: Let me know recorded Ki for COc1cc2sc(CNC(=O)C3(CC(=O)O)Cc4ccccc4C3)nc2cc1OCC(=O)N1CCN(C)CC1 [Example 8] , thanks.
Key: 50 to 200 nM

Exercise: Let me know recorded Ki for CCCOc1ccc2nc(CNC(=O)C3(CC(=O)O)Cc4ccccc4C3)sc2c1 [Example 51] , thanks.
Key: 50 to 100 nM

Exercise: Let me know recorded Ki for COc1cc2sc(CNC(=O)C3(CC(=O)O)Cc4cc(F)c(F)cc4C3)nc2cc1OCC(=O)N1CCN(C)CC1 [Example 12] , thanks.
Key: 50 to 200 nM

Exercise: Let me know recorded Ki for O=C(O)CC1(C(=O)NCc2nc3c(S(=O)(=O)N4CCCC4)cccc3s2)Cc2ccccc2C1 [Example 3] , thanks.
Key: 50 to 200 nM

Exercise: Let me know recorded Ki for COc1cc2sc(CNC(=O)C3(CC(=O)[O-])Cc4cc(F)c(F)cc4C3)nc2cc1OCC(=O)N1CC[N+](C)(C)CC1 [Example 14] , thanks.
Key: 50 to 200 nM
